Readings of bioavailability for the listed molecules
Run Description: Oral bioavailability in Sprague-Dawley rat at measured after 8 to 24 hrs by LC-MS/MS method
Assay type: ADME, organism-based
Experimental Conditions: in vivo

Record excerpt, results attached:
Molecule	Observed Value
O=S(=O)(CC1CC1)NCCOc1ccc2c(c1)[C@@H](Cc1ccccc1)[C@@H](N1CCC1)CC2	8%
CCCS(=O)(=O)NCCOc1ccc2c(c1)C(C1(c3ccc(Cl)cc3)CCC1)NCC2 (stereo not drawn)	7%
Cn1cnc(S(=O)(=O)NCCOc2ccc3c(c2)[C@@H](Cc2ccccc2)[C@@H](N2CCCC2)CC3)c1	29%
CN[C@H]1CCc2ccc(OCCNS(=O)(=O)CC3CC3)cc2[C@H]1Cc1ccccc1	22%
Cn1cnc(S(=O)(=O)NCc2ccc3c(c2)[C@@H](Cc2ccccc2)[C@@H](N2CCC2)CC3)c1 (relative stereo)	51%

Q. Supply measured bioavailability of CCCS(=O)(=O)NCCOc1ccc2c(c1)[C@@H](Cc1ccc(Cl)c(Cl)c1)[C@@H](N)CC2 (relative stereo) in your reply.
A. 31%

Q. Using the record for `Cn1cnc(S(=O)(=O)NCCOc2ccc3c(c2)[C@@H](Cc2ccccc2)[C@@H](N2CCC2)CC3)c1` , state its measured bioavailability.
A. 17%

Q. Provide bioavailability value for the following molecule: Oc1ccc2c(c1)C(C1(c3ccc(Cl)cc3)CCC1)NCC2 (stereo not drawn)
A. < 1%

----------
Run Description: Ratio of free drug level in brain to plasma of Sprague-Dawley rat at 2 mg/kg, ip measured after 8 to 24 hrs by LC-MS/MS method
Assay type: ADME, organism-based
Assay Readout: Kp uu
Hey, just send me the number, nothing else.

Compound	Kp uu
O=S(=O)(CC1CC1)NCCOc1ccc2c(c1)[C@@H](Cc1ccccc1)[C@@H](N1CCC1)CC2	0.8
CCCS(=O)(=O)NCCOc1ccc2c(c1)C(C1(c3ccc(Cl)cc3)CCC1)NCC2 (stereo not drawn)	0.54

Q. Complete the entry with Kp uu for CCCS(=O)(=O)NCCOc1ccc2c(c1)[C@@H](Cc1ccc(Cl)c(Cl)c1)[C@@H](N)CC2 (relative stereo)
A. 0.05

----------
Record set of Ki for target or system UniProtKB P48067.
Sequence (P48067 whole entry): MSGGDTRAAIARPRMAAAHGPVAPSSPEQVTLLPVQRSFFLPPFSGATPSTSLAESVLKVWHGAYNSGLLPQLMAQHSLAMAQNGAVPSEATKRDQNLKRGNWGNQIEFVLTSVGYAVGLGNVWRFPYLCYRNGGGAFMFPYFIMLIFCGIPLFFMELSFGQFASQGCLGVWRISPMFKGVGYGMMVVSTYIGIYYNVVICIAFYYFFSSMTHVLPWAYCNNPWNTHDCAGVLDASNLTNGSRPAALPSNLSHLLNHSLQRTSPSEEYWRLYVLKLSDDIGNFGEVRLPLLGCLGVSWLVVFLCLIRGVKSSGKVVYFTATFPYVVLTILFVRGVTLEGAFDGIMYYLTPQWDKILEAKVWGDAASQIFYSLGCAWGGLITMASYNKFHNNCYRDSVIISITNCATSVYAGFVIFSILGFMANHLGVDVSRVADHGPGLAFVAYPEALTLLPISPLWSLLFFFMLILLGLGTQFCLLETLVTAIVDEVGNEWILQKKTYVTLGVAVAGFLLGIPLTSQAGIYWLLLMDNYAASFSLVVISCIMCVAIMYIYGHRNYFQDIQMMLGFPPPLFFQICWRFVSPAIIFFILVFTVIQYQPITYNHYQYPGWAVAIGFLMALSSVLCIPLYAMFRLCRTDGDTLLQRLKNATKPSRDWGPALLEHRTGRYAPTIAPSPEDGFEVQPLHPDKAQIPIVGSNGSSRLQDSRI
Your answer is read as µM, so omit the unit and give the number.

Recorded results for 3 compounds are shown here.
Compound	Target Or System	Unit String	Observed Value
CCCS(=O)(=O)NCCOc1ccc2c(c1)C(C1(c3ccc(Cl)cc3)CCC1)NCC2 (centres undefined)	UniProtKB P48067	µM	0.003
Cn1cnc(S(=O)(=O)NCCOc2ccc3c(c2)[C@@H](Cc2ccccc2Cl)[C@@H](N)CC3)c1 (relative stereo)	UniProtKB P48067	µM	0.075
CCCS(=O)(=O)NC1CN(c2ccc3c(c2)[C@@H](Cc2ccccc2)[C@@H](N2CCC2)CO3)C1 (relative stereo)	UniProtKB P48067	µM	0.044

Q. Dear colleague, please send me the reported Ki for `N[C@H]1CCc2ccc(OCCNS(=O)(=O)c3ccccc3)cc2[C@H]1Cc1ccc(Cl)c(Cl)c1` when you can.
A. 0.66

----------
Run Description: Clearance in human liver microsomes at 0.5 uM incubated up to 30 mins in presence of NADPH by LC-MS/MS method
Assay type: ADME, microsome
Experimental Conditions: read-out: CLH
So basically: microsomal CLint at 0.5 µM at 100 µL/min/mg or higher? That is Y. Lower than 100 µL/min/mg? That is N.

Examples with answers:
Compound	Label
Oc1ccc2c(c1)C(C1(c3ccc(Cl)cc3)CCC1)NCC2 (stereo not drawn)	Y
CCCS(=O)(=O)NC1CN(c2ccc3c(c2)[C@@H](Cc2ccccc2)[C@@H](N2CCC2)CC3)C1	N
CCCS(=O)(=O)NC1CN(c2ccc3c(c2)[C@@H](Cc2ccccc2)[C@@H](N2CCC2)CO3)C1 (relative stereo)	N

Q. Can `Cn1cnc(S(=O)(=O)NCCOc2ccc3c(c2)[C@@H](Cc2ccccc2)[C@@H](N2CCC2)CO3)c1` be said to have microsomal CLint at 0.5 µM at or above 100 µL/min/mg?
A. Y

Q. Decide: is the reported value of microsomal CLint at 0.5 µM for O=S(=O)(CC1CC1)NCCOc1ccc2c(c1)[C@@H](Cc1ccccc1)[C@@H](N1CCC1)CO2 (relative stereo) equal to or greater than 100 µL/min/mg?
A. Y

----------
Run Description: Clearance in rat liver microsomes at 0.5 uM incubated up to 30 mins in presence of NADPH by LC-MS/MS method
Type: ADME, microsome
Experimental Conditions: read-out: CLH
# if value of microsomal CLint at 0.5 µM reaches 60 µL/min/mg, tag MET; if it stays below, tag NOT MET

Recorded results for 4 compounds are shown here.
Compound	Label
N[C@H]1CCc2ccc(OCCNS(=O)(=O)CC3CC3)cc2[C@H]1Cc1ccc(Cl)c(Cl)c1 (relative stereo)	NOT MET
Cn1cnc(S(=O)(=O)NCCOc2ccc3c(c2)[C@@H](Cc2ccccc2)[C@@H](NCC(F)(F)F)CC3)c1 (relative stereo)	MET
Cn1cnc(S(=O)(=O)NCCOc2ccc3c(c2)[C@@H](Cc2ccc(Cl)c(Cl)c2)[C@@H](N)CC3)c1 (relative stereo)	NOT MET
CS(=O)(=O)NCCOc1ccc2c(c1)[C@@H](Cc1ccc(Cl)c(Cl)c1)[C@@H](N)CC2 (relative stereo)	NOT MET

// switching to the query compound
Q. Given `Cn1cnc(S(=O)(=O)NCCOc2ccc3c(c2)[C@@H](Cc2ccccc2)[C@@H](N2CCC2)CC3)c1` , state whether its microsomal CLint at 0.5 µM is at least 60 µL/min/mg.
A. NOT MET

----------
Run Description: Clearance in human liver microsomes at 0.5 uM incubated up to 30 mins in presence of NADPH by LC-MS/MS method
Type: ADME, microsome
Experimental Conditions: read-out: CLH
The entries below are paired with their reported microsomal CLint at 0.5 µM.

Sample answers from the record:
Molecule	Observed Value
O=S(=O)(CC1CC1)NC1CN(c2ccc3c(c2)[C@@H](Cc2ccccc2)[C@@H](N2CCC2)CC3)C1	< 23 µL/min/mg
O=S(=O)(CC1CC1)NC1CN(c2ccc3c(c2)[C@@H](Cc2ccccc2)[C@@H](N2CCC2)CO3)C1 (relative stereo)	< 23 µL/min/mg

Next item in the queue.
Q. Specify reported microsomal CLint at 0.5 µM for the molecule shown: CCCCS(=O)(=O)NCCOc1ccc2c(c1)[C@@H](Cc1ccc(Cl)c(Cl)c1)[C@@H](N)CC2 (relative stereo)
A. 173 µL/min/mg

----------
Run Description: Clearance in human liver microsomes at 0.5 uM incubated up to 30 mins in presence of NADPH by LC-MS/MS method
Format: ADME, microsome
Experimental Conditions: read-out: CLH
Measured microsomal CLint at 0.5 µM values are reported for all entries that follow.
Give your result in µL/min/mg as a bare value.

Solved cases (2 shown):
Molecule	Assay Readout	Observed Value
Cn1cnc(S(=O)(=O)NCCOc2ccc3c(c2)[C@@H](Cc2ccc(Cl)c(Cl)c2)[C@@H](N)CC3)c1 (relative stereo)	microsomal CLint at 0.5 µM	36
Cn1cnc(S(=O)(=O)NCCOc2ccc3c(c2)[C@@H](Cc2ccccc2)[C@@H](NCC(F)(F)F)CC3)c1 (relative stereo)	microsomal CLint at 0.5 µM	69

Switching to the query record.
Q. Tell me measured microsomal CLint at 0.5 µM for CCCS(=O)(=O)NCCOc1ccc2c(c1)[C@@H](Cc1ccc(Cl)c(Cl)c1)[C@@H](N)CC2 (relative stereo) please.
A. 95
